A collection of binders and their measured Kd
Target: T1, Fc tagged human TNFR1 (Sino Biological) (human, UniProt P19438 22-211, limits assumed)
T1 construct: Bought reagent; also called hTNFR1; hTNFR1-Fc; not shown: Fc tag of the bought protein
T1 sequence (looked up): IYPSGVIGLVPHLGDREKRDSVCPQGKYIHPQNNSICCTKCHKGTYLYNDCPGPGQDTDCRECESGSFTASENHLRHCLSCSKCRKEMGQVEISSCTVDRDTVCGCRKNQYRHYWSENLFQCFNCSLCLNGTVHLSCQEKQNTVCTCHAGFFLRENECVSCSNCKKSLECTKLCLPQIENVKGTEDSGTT
Experiment: SPR, Biacore T200 single cycle kinetics, receptor-Fc captured on Protein A chip, TNF 1.67-15 nM
recorded_endpoint: Kd

| binder | experimental_value |
| --- | --- |
| TNF mutein G4 (ligand, Human TNF mutein, SSTYNP at positions 84-89; also called mutTNF G4; mutTNF; not shown: C-terminal FLAG tag and His6 tag from vector pANT65) VRSSSRTPSDKPVAHVVANPQAEGQLQWLNRRANALLANGVELRDNQLVVPSEGLYLIYSQVLFKGQGCPSTHVLLTHTISRISSTYNPKVNLLSAIKSPCQRETPEGAEAKPWYEPIYLGGVFQLEKGDRLSAEINRPDYLDFAESGQVYFGIIAL | 0.0171 nM |
| TNF mutein B2 (ligand, Human TNF mutein, TASYSG at positions 84-89; not shown: C-terminal FLAG tag and His6 tag from vector pANT65) VRSSSRTPSDKPVAHVVANPQAEGQLQWLNRRANALLANGVELRDNQLVVPSEGLYLIYSQVLFKGQGCPSTHVLLTHTISRITASYSGKVNLLSAIKSPCQRETPEGAEAKPWYEPIYLGGVFQLEKGDRLSAEINRPDYLDFAESGQVYFGIIAL | 0.0164 nM |
| TNF mutein F7 (ligand, Human TNF mutein, SETVVG at positions 84-89; not shown: C-terminal FLAG tag and His6 tag from vector pANT65) VHSSSRTPSDKPVAHVVANPQAEGQLQWLNRRANALLANGVELRDNQLVVPSEGLYLIYSQVLFKGQGCPSTHVLLTHTISRISETVVGKVNLLSAIKSPCQRETPEGAEAKPWYEPIYLGGVFQLEKGDRLSVEINRPDYLDFAESGQVYFGIIAL | 0.0424 nM |
